Taken from ChEMBL document CHEMBL3745672.

# targetOrTestSystem: Mitogen-activated protein kinase 8 (Homo sapiens, UniProt P45983)
# Sequence (P45983 whole entry): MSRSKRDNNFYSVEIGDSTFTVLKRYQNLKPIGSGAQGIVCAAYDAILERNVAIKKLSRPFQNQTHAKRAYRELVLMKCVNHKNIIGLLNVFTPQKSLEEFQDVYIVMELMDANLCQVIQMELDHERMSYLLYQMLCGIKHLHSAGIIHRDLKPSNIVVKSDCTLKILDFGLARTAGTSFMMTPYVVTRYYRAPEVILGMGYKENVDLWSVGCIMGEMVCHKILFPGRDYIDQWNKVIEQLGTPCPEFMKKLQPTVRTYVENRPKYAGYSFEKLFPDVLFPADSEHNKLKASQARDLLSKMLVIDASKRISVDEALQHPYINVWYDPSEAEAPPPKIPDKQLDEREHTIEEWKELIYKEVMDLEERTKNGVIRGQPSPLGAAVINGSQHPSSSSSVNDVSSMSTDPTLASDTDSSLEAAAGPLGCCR
# assay: Inhibition of JNK1 (unknown origin) expressed in HEK293 cells assessed as anisomycin-induced c-Jun phosphorylation at 10 uM incubated for 30 mins by Western blot analysis relative to anisomycin
# Format: cell-based
# Parameters: scale not given: the % may be the effect or the level left
quantityName: Activity (%)
// units = %; emit number, no label

Prompt: Returns the measured Activity for the input compound. Input: `Cn1c(=O)c(Oc2c(Cl)cccc2Cl)cc2cnc(NC3CC3)nc21`
Completion: 128

Prompt: What does the data say about its Activity? Entry: `Cn1c(=O)c(Oc2ccc(F)cc2F)cc2cnc(NC3CC3)nc21`
Completion: 142
